# credit: patent US20230026232A1

- assay.comment: Solubility of bulk API in biorelevant media by HPLC
- Format: physicochemical
- recorded.conditions: thermodynamic from solid; FaSSIF, pH 6.8, room temperature, up to 24 hours

[
  {
    "smiles.text": "CC(C)c1cnn2c(N[C@@H]3CCc4[nH]c5ccccc5c4C3)nc(-c3cncc(F)c3)nc12",
    "solubility / µg/mL": 1.4
  }
]

----------
- tested.target: AHR (Homo sapiens, UniProt P35869)
- Sequence (P35869 11-848): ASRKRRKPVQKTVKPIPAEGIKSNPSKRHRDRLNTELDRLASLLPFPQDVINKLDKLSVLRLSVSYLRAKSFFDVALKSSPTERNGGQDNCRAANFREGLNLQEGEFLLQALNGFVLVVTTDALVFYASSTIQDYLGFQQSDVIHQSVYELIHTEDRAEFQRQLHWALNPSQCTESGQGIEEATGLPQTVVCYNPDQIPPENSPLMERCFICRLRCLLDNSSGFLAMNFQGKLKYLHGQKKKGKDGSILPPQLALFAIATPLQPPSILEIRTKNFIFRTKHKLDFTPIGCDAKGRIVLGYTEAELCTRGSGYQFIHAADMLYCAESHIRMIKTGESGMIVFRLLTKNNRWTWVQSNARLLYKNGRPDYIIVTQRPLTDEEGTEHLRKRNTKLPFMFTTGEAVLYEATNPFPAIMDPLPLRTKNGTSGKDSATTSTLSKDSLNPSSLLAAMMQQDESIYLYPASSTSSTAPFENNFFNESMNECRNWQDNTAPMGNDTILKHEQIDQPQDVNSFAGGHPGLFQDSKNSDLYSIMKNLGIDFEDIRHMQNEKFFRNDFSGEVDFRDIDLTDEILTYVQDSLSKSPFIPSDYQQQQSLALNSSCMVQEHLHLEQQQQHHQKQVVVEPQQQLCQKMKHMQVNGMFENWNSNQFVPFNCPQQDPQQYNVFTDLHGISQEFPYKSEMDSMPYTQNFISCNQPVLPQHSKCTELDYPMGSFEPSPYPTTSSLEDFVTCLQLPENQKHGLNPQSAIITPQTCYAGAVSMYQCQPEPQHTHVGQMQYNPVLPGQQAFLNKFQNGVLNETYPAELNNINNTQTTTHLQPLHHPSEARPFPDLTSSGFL
- assay.comment: HepG2 DRE-Luc reporter assay, VAF347-stimulated luciferase expression
- Assay type: cell-based
- Design: endogenous in cells; host or cells: HepG2 DRE-Luc reporter cell line
- recorded.conditions: 80 nM VAF347, n=2
pIC50: −log10 of the molar value.

[
  {
    "smiles.text": "CC(C)c1cnn2c(N[C@@H]3CCc4[nH]c5ccccc5c4C3)nc(-c3cncc(F)c3)nc12",
    "pIC50": 7.04
  },
  {
    "smiles.text": "C=C(C)c1cnn2c(N[C@@H]3CCc4[nH]c5ccccc5c4C3)nc(-c3cncc(F)c3)nc12",
    "pIC50": 6.67
  },
  {
    "smiles.text": "CC(C)(O)c1cnn2c(N[C@@H]3CCc4[nH]c5ccccc5c4C3)nc(-c3cncc(F)c3)nc12",
    "pIC50": 7.64
  }
]
